Target: Muscarinic acetylcholine receptor M1 (Rattus norvegicus)
Assay: M5 positive allosteric modulators, analog testing, SAR follow-up, CHO cells, calcium, ACh EC10, single 30 µM (AID 2665);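 note: 100% = response to a maximal acetylcholine concentration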
Conditions: rat M1 potentiation, CHO calcium; at 30 µM; stronger effect = higher value
Parameter: % ACh max response. Scope: all listed entries.

O=C1C(=O)N(Cc2c(F)cccc2F)c2ccccc21 : 36.6%
O=C1C(=O)N(Cc2ccc(Br)cc2F)c2ccccc21 : 49.2%
Cc1ccccc1CN1C(=O)C(=O)c2cccc(Cl)c21 : 32.8%

INPUT: Recorded % ACh max response of O=C1C(=O)N(Cc2ccccc2C(F)(F)F)c2ccccc21 , please.
OUTPUT: 37.9%

INPUT: Which % ACh max response value is on record for O=C1C(=O)N(Cc2ccccc2F)c2ccc(Cl)cc21 ?
OUTPUT: 23%

INPUT: Query (molecule): O=C1C(=O)N(Cc2ccccc2C(F)(F)F)c2c(Cl)cccc21 ; field requested: % ACh max response
OUTPUT: 31.1%

INPUT: Fill in: % ACh max response of COc1cccc(CN2C(=O)C(=O)c3cc(OC(F)(F)F)ccc32)c1 is ___
OUTPUT: 28.6%

INPUT: Request the reported % ACh max response associated with COc1ccc(CN2C(=O)C(=O)c3cc(C)ccc32)cc1
OUTPUT: 14.1%

----------
Biological target: Muscarinic acetylcholine receptor M1 (Rattus norvegicus) (UniProt P08482)
Test: M5 positive allosteric modulators, analog testing, SAR follow-up, CHO cells, calcium, ACh EC10, single 30 µM (AID 2665);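 note: 100% = response to a maximal acetylcholine concentration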
Settings: rat M1 potentiation, CHO calcium; at 30 µM; stronger effect = higher value
Short version: % ACh max response at least 30% is 1, less is -1.

Cc1ccc2c(c1)C(=O)C(=O)N2Cc1ccc(OC(F)(F)F)cc1 : -1
O=C1C(=O)N(Cc2ccc(OC(F)(F)F)cc2)c2c(F)cccc21 : 1
O=C1C(=O)N(Cc2c(F)cccc2F)c2ccc(F)cc21 : -1
O=C1C(=O)N(Cc2ccc(-c3ccc(Cl)cc3)cc2)c2ccccc21 : 1

INPUT: Check if % ACh max response >= 30% (inclusive). Item: O=C1C(=O)N(Cc2ccccc2C(F)(F)F)c2ccc(F)cc21
OUTPUT: 1

----------
Biological target: Muscarinic acetylcholine receptor M5 (Homo sapiens)
Experiment: M5 positive allosteric modulators, analog testing, SAR follow-up, CHO cells, calcium, ACh EC10, single 30 µM (AID 2665);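 note: 100% = response to a maximal acetylcholine concentration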
Conditions: CHO hM5 calcium flux, ACh EC10 potentiation; at 30 µM
Activity calls are given as the source filed them. How the calls were made is not given here.
I would appreciate it if you answered using one of these outcomes: label 1 for active, label 0 for inactive

Some solved entries appear below for comparison.
O=C1C(=O)N(Cc2ccc(OC(F)(F)F)cc2)c2c(Cl)ccc(Cl)c21 : label 0
O=C1C(=O)N(Cc2ccc(Br)cc2)c2c(Cl)ccc(Cl)c21 : label 0
O=C1C(=O)N(Cc2ccc(F)cc2F)c2ccc(OC(F)(F)F)cc21 : label 1
O=C1C(=O)N(Cc2c(F)cccc2F)c2ccccc21 : label 0
COc1ccc(CN2C(=O)C(=O)c3cc(C)ccc32)cc1 : label 0
Cc1ccccc1CN1C(=O)C(=O)c2cc(Cl)ccc21 : label 1
O=C1C(=O)N(Cc2ccccc2F)c2ccc(F)cc21 : label 1
O=C1C(=O)N(Cc2c(F)cccc2F)c2c(Cl)ccc(Cl)c21 : label 0
COc1cccc(CN2C(=O)C(=O)c3ccccc32)c1 : label 0
O=C1C(=O)N(Cc2ccccc2Cl)c2c(Cl)ccc(Cl)c21 : label 0

Next:
INPUT: What was the test verdict on O=C1C(=O)N(Cc2ccc(Br)cc2)c2ccc(OC(F)(F)F)cc21 ?
OUTPUT: label 1

----------
Target: Muscarinic acetylcholine receptor M5 (Homo sapiens) (UniProt P08912)
Sequence (P08912 whole entry, looked up): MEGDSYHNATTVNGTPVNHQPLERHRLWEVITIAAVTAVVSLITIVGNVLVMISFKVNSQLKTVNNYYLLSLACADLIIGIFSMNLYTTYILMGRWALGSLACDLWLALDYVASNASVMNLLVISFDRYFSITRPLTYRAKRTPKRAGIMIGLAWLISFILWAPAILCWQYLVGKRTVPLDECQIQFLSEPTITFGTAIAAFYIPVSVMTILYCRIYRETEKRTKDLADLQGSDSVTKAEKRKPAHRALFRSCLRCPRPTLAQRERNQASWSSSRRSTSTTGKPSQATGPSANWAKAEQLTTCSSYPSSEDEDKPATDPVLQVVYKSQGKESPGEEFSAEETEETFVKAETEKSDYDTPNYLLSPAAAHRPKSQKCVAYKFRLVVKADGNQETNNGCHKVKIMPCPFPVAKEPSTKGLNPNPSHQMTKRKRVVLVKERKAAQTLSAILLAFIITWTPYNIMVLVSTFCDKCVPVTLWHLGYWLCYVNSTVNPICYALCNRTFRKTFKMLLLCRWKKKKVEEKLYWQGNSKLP
Experiment: M5 positive allosteric modulators, analog testing, SAR follow-up, CHO cells, calcium, ACh EC10, single 30 µM (AID 2665);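 note: 100% = response to a maximal acetylcholine concentration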
Settings: CHO hM5 calcium flux, ACh EC10 potentiation; at 30 µM
Activity calls are given as the source filed them. The rule behind the calls is not given here.
Assign a class; possible classes are active, inactive

O=C1C(=O)N(Cc2ccc(-c3ccc(Cl)nc3)cc2)c2ccc(OC(F)(F)F)cc21 : active

INPUT: Returns: the outcome recorded for COc1ccc(CN2C(=O)C(=O)c3cc(Cl)ccc32)cc1 in this assay.
OUTPUT: inactive

INPUT: Which outcome was assigned to O=C1C(=O)N(Cc2ccc(Br)cc2F)c2ccc(F)cc21 in this test?
OUTPUT: active

INPUT: Which outcome was assigned to COc1cccc(CN2C(=O)C(=O)c3cc(C)ccc32)c1 in this test?
OUTPUT: inactive

INPUT: Outcome? COc1ccc(CN2C(=O)C(=O)c3ccccc32)cc1
OUTPUT: active

INPUT: I'd appreciate the recorded outcome for O=C1C(=O)N(Cc2ccc(-c3ccsc3)cc2)c2ccc(OC(F)(F)F)cc21 from this test.
OUTPUT: active

INPUT: # fetch the recorded call for Cn1cc(-c2ccc(CN3C(=O)C(=O)c4cc(OC(F)(F)F)ccc43)cc2)cn1 here
OUTPUT: active

INPUT: Per the assay record, what outcome was assigned to O=C1C(=O)N(Cc2ccc(OC(F)(F)F)cc2)c2c(F)cccc21 ?
OUTPUT: active

----------
Target: Muscarinic acetylcholine receptor M1 (Rattus norvegicus) (UniProt P08482)
Assay: M5 positive allosteric modulators, analog testing, SAR follow-up, CHO cells, calcium, ACh EC10, single 30 µM (AID 2665);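 note: 100% = response to a maximal acetylcholine concentration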
Details: rat M1 potentiation, CHO calcium; at 30 µM; stronger effect = higher value
MEASUREMENT TYPE: % ACh max response (%)
State just the number; it will be interpreted in %.

Please review the following examples before continuing.
COc1ccc(CN2C(=O)C(=O)c3cc(Cl)ccc32)cc1 : 20.3
O=C1C(=O)N(Cc2ccccc2C(F)(F)F)c2c(Cl)ccc(Cl)c21 : 21.1
Cc1ccccc1CN1C(=O)C(=O)c2ccccc21 : 43.2

Consider now this further molecule.
INPUT: # get_value(readout='% ACh max response', item= O=C1C(=O)N(Cc2ccc(OC(F)(F)F)cc2)c2c(Cl)ccc(Cl)c21 )
OUTPUT: 16

----------
Molecular target: Muscarinic acetylcholine receptor M1 (Rattus norvegicus) (UniProt P08482)
Assay: M5 positive allosteric modulators, analog testing, SAR follow-up, CHO cells, calcium, ACh EC10, single 30 µM (AID 2665);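 note: 100% = response to a maximal acetylcholine concentration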
Details: rat M1 potentiation, CHO calcium; at 30 µM; stronger effect = higher value
MEASUREMENT TYPE: % ACh max response (%)
I only need the number, in %, no unit after it.

Use the examples below as a reference point.
O=C1C(=O)N(Cc2ccc(C(F)(F)F)cc2)c2c(Cl)cccc21 : 67
Cc1cccc2c1N(Cc1ccccc1F)C(=O)C2=O : 24.9
O=C1C(=O)N(Cc2ccc(F)cc2F)c2ccc(F)cc21 : 47.3

Proceeding to the next compound to report its % ACh max response.
INPUT: Tell me the measured % ACh max response of COc1ccc(CN2C(=O)C(=O)c3cccc(Cl)c32)cc1 , please.
OUTPUT: 49.4

----------
Target: Muscarinic acetylcholine receptor M5 (Homo sapiens) (UniProt P08912)
Assay: M5 positive allosteric modulators, analog testing, SAR follow-up, CHO cells, calcium, ACh EC10, single 30 µM (AID 2665);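 note: 100% = response to a maximal acetylcholine concentration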
Conditions: CHO hM5 calcium flux, ACh EC10 potentiation; at 30 µM; stronger effect = higher value
If the reported % ACh max response equals or exceeds 60%, assign satisfied. If not, assign not satisfied.

O=C1C(=O)N(Cc2ccc(-c3ccc(Cl)c(Cl)c3)cc2)c2ccccc21 : not satisfied
COc1cccc(CN2C(=O)C(=O)c3cc(OC(F)(F)F)ccc32)c1 : satisfied
Cc1ccccc1CN1C(=O)C(=O)c2cc(F)ccc21 : not satisfied
O=C1C(=O)N(Cc2ccccc2F)c2c(Cl)ccc(Cl)c21 : not satisfied
CCCOc1ccc(-c2ccc(CN3C(=O)C(=O)c4ccccc43)cc2)cc1 : not satisfied

INPUT: Dear colleague, could you confirm whether O=C1C(=O)N(Cc2ccc(-c3ccccc3)cc2)c2ccc(OC(F)(F)F)cc21 has % ACh max response at or above 60%?
OUTPUT: satisfied

INPUT: State whether the measured % ACh max response reaches 60%, counting equality as reaching it, for O=C1C(=O)N(Cc2ccccc2C(F)(F)F)c2ccc(Cl)cc21
OUTPUT: not satisfied

INPUT: Say whether Cc1cccc2c1N(Cc1ccccc1F)C(=O)C2=O shows % ACh max response of 60% or more.
OUTPUT: not satisfied

INPUT: hey, is % ACh max response for this one >= 60%? O=C1C(=O)N(Cc2ccccc2F)c2c(Cl)cccc21
OUTPUT: not satisfied

INPUT: Would you say O=C1C(=O)N(Cc2c(F)cccc2F)c2ccc(F)cc21 shows % ACh max response at minimum 60%?
OUTPUT: not satisfied

INPUT: Has O=C1C(=O)N(CCc2ccc(Br)cc2)c2ccc(OC(F)(F)F)cc21 a recorded % ACh max response greater than or equal to 60%?
OUTPUT: satisfied

INPUT: Kindly determine if % ACh max response recorded for O=C1C(=O)N(Cc2ccccc2C(F)(F)F)c2c(Cl)ccc(Cl)c21 is above or exactly 60%.
OUTPUT: not satisfied
